Taken from patent US20250346597A1.

- system under test: DGKα (Homo sapiens (Human), UniProt P23743)
- Sequence (P23743 whole entry): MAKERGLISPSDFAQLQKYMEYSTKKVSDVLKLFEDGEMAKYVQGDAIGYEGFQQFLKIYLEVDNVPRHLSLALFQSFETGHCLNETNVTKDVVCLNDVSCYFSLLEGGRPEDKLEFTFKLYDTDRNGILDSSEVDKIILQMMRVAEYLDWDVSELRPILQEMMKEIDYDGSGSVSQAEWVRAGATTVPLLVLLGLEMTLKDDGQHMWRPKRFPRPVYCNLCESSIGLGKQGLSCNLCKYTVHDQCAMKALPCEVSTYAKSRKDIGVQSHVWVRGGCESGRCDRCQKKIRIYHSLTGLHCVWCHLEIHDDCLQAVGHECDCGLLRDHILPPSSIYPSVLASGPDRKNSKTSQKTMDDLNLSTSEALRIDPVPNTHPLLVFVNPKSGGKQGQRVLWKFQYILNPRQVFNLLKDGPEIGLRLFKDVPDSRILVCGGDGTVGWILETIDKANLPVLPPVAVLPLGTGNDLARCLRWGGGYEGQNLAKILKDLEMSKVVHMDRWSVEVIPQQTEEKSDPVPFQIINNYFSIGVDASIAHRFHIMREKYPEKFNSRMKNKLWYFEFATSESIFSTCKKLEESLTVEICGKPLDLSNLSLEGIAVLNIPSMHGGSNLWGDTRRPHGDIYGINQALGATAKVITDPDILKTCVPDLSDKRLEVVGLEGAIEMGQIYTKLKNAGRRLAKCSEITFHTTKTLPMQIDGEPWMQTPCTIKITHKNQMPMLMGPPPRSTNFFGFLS
reported property: pIC50
Please express pIC50 as -log10 of the molar concentration.

Data request, read-out pIC50, for CC[C@H]1CN(C(C)c2cc3c(cc2F)OC(C)(C)CO3)[C@H](CC)CN1c1cc(=O)n(C)c2cn(CC#N)nc12 (stereo partly drawn)
5.98

Returns the measured pIC50 for the input compound. Input: CC[C@H]1CN(C(C)c2ccn3nccc3n2)[C@H](CC)CN1c1cc(=O)n(C)c2cn(CC#N)nc12 (single isomer, unassigned) [Compound A154a]
6.30

====

Provide the recorded IC50 for the entries that follow.
The reply should read as a number followed by its unit.

Request: IC50, test system UniProt:Q13574, entry CC[C@@H]1CN(c2cc(=O)n(C)c3cn(CC#N)nc23)[C@@H](C)CN1C(C)c1ccn2nccc2n1 (single isomer, unassigned) [Compound A166a]
Sequence (Q13574 other isoform, or with tags, fused parts or gaps): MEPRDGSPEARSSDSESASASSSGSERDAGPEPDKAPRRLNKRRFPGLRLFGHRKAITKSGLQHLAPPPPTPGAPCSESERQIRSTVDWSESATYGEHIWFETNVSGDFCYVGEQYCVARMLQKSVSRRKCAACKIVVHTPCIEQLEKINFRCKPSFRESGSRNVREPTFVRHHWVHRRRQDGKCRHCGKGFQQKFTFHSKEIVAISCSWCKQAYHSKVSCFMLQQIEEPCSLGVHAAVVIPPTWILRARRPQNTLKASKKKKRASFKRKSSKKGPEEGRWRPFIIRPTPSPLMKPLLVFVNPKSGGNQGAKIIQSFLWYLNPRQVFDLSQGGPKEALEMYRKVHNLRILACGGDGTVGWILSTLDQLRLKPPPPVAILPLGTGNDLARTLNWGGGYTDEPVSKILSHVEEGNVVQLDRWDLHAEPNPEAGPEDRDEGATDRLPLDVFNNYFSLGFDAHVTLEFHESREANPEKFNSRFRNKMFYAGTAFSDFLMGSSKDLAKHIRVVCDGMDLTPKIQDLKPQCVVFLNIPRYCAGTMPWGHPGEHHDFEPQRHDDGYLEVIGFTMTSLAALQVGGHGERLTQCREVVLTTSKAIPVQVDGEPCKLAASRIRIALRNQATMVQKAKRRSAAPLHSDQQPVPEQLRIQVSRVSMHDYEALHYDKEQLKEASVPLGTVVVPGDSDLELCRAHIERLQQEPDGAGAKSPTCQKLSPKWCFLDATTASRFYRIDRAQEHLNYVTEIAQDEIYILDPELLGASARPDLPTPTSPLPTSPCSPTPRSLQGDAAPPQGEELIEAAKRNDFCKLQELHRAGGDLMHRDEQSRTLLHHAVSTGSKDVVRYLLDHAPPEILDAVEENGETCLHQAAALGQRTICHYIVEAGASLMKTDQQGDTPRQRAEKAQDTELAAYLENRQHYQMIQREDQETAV
227 nM

Give UniProt:Q13574 IC50 for CC[C@H]1CN(C(C)c2nc3c(s2)CCCC3)[C@H](CC)CN1c1cc(=O)n(C)c2cn(CC#N)nc12 (single isomer, unassigned) [Compound A36b]
946 nM

Entry CC[C@H]1CN(C(C)c2ccc3ncsc3n2)[C@H](CC)CN1c1cc(=O)n(C)c2cn(CC#N)nc12 (single isomer, unassigned) [Compound A99a] , system UniProt:Q13574: what IC50 was measured?
3520 nM

====

- system under test: DGKα (Homo sapiens (Human), UniProt P23743)
- measurement protocol: Biochemical DGK IC50 assay (ADP-Glo, lipid micelle substrate), DGKα; further: full length DGKα 7.5 nM
- stated conditions: full length DGKα […], ATP 140 μM, DAG 80 μM
Please use the following IC50 ranges when assigning a class: Low = under 300 nM, Mid = from 300 nM up to 1000 nM, High = 1000 nM and over

Hi, small favor: classify CC[C@H]1CN(C(C)c2ccc(OC)c(C)n2)[C@H](CC)CN1c1cc(=O)n(C)c2cn(CC#N)nc12 (stereo partly drawn) [Compound A55] by its IC50 when you get a moment.
High

Category of CC[C@H]1CN(C(C)c2ccc(C)cc2C)[C@H](CC)CN1c1cc(=O)n(C)c2cn(CC#N)nc12 (stereo partly drawn) [Compound A6] , please.
High

# bin label for CC[C@H]1CN(C(C)c2ccc3c(c2)OCO3)[C@H](CC)CN1c1cc(=O)n(C)c2cn(CC#N)nc12 (single isomer, unassigned) [Compound A68a]
Low

Exam item: assign CC[C@H]1CN(C(C)c2ccc(C(F)(F)F)c(C)n2)[C@H](CC)CN1c1cc(=O)n(C)c2cn(CC#N)nc12 (stereo partly drawn) [Compound A50] to the correct category.
Mid

Kindly state the category for this compound: CC[C@H]1CN(C(C)c2ccc(C3CC3)nc2)[C@H](CC)CN1c1nc(=O)n(C)c2cn(CC#N)nc12 (single isomer, unassigned) [Compound A127a]
Mid

Kindly state the category for this compound: CC(c1cc2c(cc1F)OCC(C)(C)O2)N1C[C@H](C)N(c2cc(=O)n(C)c3cn(CC#N)nc23)C[C@H]1C (single isomer, unassigned) [Compound A179a]
High

// return the class label for CC[C@H]1CN(C(C)c2ccc(C(C)(F)F)nc2)[C@H](CC)CN1c1cc(=O)n(C)c2cn(CC#N)nc12 (stereo partly drawn) [Compound A199]
High

Lab note: which band did CC[C@@H]1CN(c2cc(=O)n(C)c3cn(CC#N)nc23)[C@@H](C)CN1[C@@H](C)c1ccn2nc(C)c(F)c2n1 (single isomer, unassigned) [Compound A173a] land in?
Low

Hey, which category is CC[C@H]1CN(C(C)c2ccn3nc(C)c(F)c3c2)[C@H](CC)CN1c1cc(=O)n(C)c2cn(CC#N)nc12 (single isomer, unassigned) [Compound A169b] in, do you know?
High

Please classify: CC[C@H]1CN(C(C)c2nc3c(s2)CCCC3)[C@H](CC)CN1c1cc(=O)n(C)c2cn(CC#N)nc12 (single isomer, unassigned) [Compound A36a]
Low

Please classify: CC[C@H]1CN(C(C)c2ccc3ncsc3n2)[C@H](CC)CN1c1cc(=O)n(C)c2cn(CC#N)nc12 (single isomer, unassigned) [Compound A99b]
Low

# bin lookup: classify CC[C@H]1CN(C(C)c2ccc3nc(C)sc3n2)[C@H](CC)CN1c1c(C#N)c(=O)n(C)c2cn(CC#N)nc12 (single isomer, unassigned) [Compound A140a] by its IC50
Mid

Which category does the recorded IC50 put CC[C@H]1CN(C(C)c2ccc(OC)cc2F)[C@H](CC)CN1c1cc(=O)n(C)c2cn(CC#N)nc12 (stereo partly drawn) [Compound A12] in?
Mid

Note: place this compound into its band. Item: CC[C@H]1CN(C(C)c2ccc3cc(C(F)F)sc3n2)[C@H](CC)CN1c1cc(=O)n(C)c2cn(CC#N)nc12 (single isomer, unassigned) [Compound A144a]
Low

Which of the defined bands does the recorded IC50 of CC[C@H]1CN(C(C)c2ccc(C3CC3)nc2F)[C@H](CC)CN1c1cc(=O)n(C)c2cn(CC#N)nc12 (single isomer, unassigned) [Compound A45a] sit within?
Low

Using the reported IC50, which band applies to CC[C@H]1CN(C(C)c2ccc(OC)cc2)[C@H](CC)CN1c1cc(=O)n(C)c2cn(CC#N)nc12 (single isomer, unassigned) [Compound A34b] ?
Mid

# classify by IC50 band: CC[C@H]1CN(C(C)c2ccc(OC)c(C)c2)[C@H](CC)CN1c1cc(=O)n(C)c2cn(CC#N)nc12 (stereo partly drawn) [Compound A9]
High

Input CC[C@H]1CN(C(C)c2ccc(C3CC3)c(F)n2)[C@H](CC)CN1c1cc(=O)n(C)c2cn(CC#N)nc12 (stereo partly drawn) [Compound A62] ; output its category
Low

Which bin should I file CC[C@H]1CN(C(C)c2cc3sc(C)nc3cc2F)[C@H](CC)CN1c1nc(=O)n(C)c2cn(CC#N)nc12 (single isomer, unassigned) [Compound A128a] under?
Mid

Would you mind sorting CC[C@H]1CN(C(C)c2ccn3ncc(F)c3c2)[C@H](CC)CN1c1cc(=O)n(C)c2cn(CC#N)nc12 (single isomer, unassigned) [Compound A165b] into the appropriate category?
High

State the band of CC[C@H]1CN(C(C)c2ccc(C(C)(C)F)nc2)[C@H](CC)CN1c1cc(=O)n(C)c2cn(CC#N)nc12 (single isomer, unassigned) [Compound A46b]
Mid

Please report the category associated with CC[C@H]1CN(C(C)c2ccc3ncsc3n2)[C@H](CC)CN1c1nc(=O)n(C)c2cn(CC#N)nc12 (single isomer, unassigned) [Compound A126b] , nothing else.
Low

// bin(item) where item = CC[C@H]1CN(C(C)c2ccc(NC(C)=O)c(O)c2F)[C@H](CC)CN1c1cc(=O)n(C)c2cn(CC#N)nc12 (single isomer, unassigned) [Compound A87b]
High
